Attribute: MIC90
System: Yersinia sp.
Test: In Vitro Anti Bacterial Activity (MIC90) against 90% of tested clinical Isolates of Yersinia species(20)
Assay type: functional
Settings: Yersinia sp. (in: enterobacteria)

> print(dat)
                       smilesrepresentation  recordedmeasurement
1  CC1(C)S[C@@H]2[C@H](NC(=O)[C@H](N)c3ccc(O)cc3)C(=O)N2[C@H]1C(=O)O           > 64 µg/mL
2  C[C@@H](O)[C@H]1C(=O)N2C(C(=O)O)=C(CN3CCC[C@H]3C(N)=O)S[C@H]12           0.25 µg/mL
3  C[C@@H](O)[C@H]1C(=O)N2C(C(=O)O)=C(CN(C)CC(N)=O)S[C@H]12            0.5 µg/mL
4  C[C@@H](O)[C@H]1C(=O)N2C(C(=O)O)=C(CN3C[C@H](O)C[C@H]3C(N)=O)S[C@H]12           0.15 µg/mL

Looking up "C[C@@H](O)[C@H]1C(=O)N2C(C(=O)O)=C(CN(C)[C@@H](C)C(N)=O)S[C@H]12" , I found its MIC90 recorded as 0.5 µg/mL

Looking up "C[C@@H](O)[C@H]1C(=O)N2C(C(=O)O)=C(CN3CCC[C@@H]3C(N)=O)S[C@H]12" , I found its MIC90 recorded as 1 µg/mL

* * *

Test system: Staphylococcus aureus
Assay: In vitro antibacterial activity against Sa MR(I) heterogeneous methicillin resistant Staphylococcus aureus
Format: functional
measuredAttribute: MIC (µg/mL)
Report only the number, with the unit µg/mL understood.

> print(dat)
                                   compound        systemundertest  recordedmeasurement
1  C[C@@H](O)[C@H]1C(=O)N2C(C(=O)O)=C(CN(CC(N)=O)CC(N)=O)S[C@H]12  Staphylococcus aureus                 0.25

With Staphylococcus aureus as the test system, "C[C@@H](O)[C@H]1C(=O)N2C(C(=O)O)=C(CN(C)CC(=O)N3CCN(C)CC3)S[C@H]12" showed MIC of 0.5

With Staphylococcus aureus as the test system, "C[C@@H](O)[C@H]1C(=O)N2C(C(=O)O)=C(CN3CCC(C(N)=O)CC3)S[C@H]12" showed MIC of 0.12

With Staphylococcus aureus as the test system, "C[C@@H](O)[C@H]1C(=O)N2C(C(=O)O)=C(CN(C)CC(=O)NCC(N)=O)S[C@H]12" showed MIC of 0.25

With Staphylococcus aureus as the test system, "C[C@@H](O)[C@H]1C(=O)N2C(C(=O)O)=C(CN3CCC[C@@H]3C(N)=O)S[C@H]12" showed MIC of 0.12

With Staphylococcus aureus as the test system, "CCCCOC(=O)CN(C)CC1=C(C(=O)O)N2C(=O)[C@H]([C@@H](C)O)[C@H]2S1" showed MIC of 0.5

With Staphylococcus aureus as the test system, C[C@@H](O)[C@H]1C(=O)N2C(C(=O)O)=C(CN3CCCC(C(N)=O)C3)S[C@H]12 (some centres undefined) showed MIC of 0.12

With Staphylococcus aureus as the test system, "C[C@@H](O)[C@H]1C(=O)N2C(C(=O)O)=C(CN3C[C@@H](O)C[C@@H]3C(N)=O)S[C@H]12" showed MIC of 0.25

With Staphylococcus aureus as the test system, C[C@@H](O)[C@H]1C(=O)N2C(C(=O)O)=C(CN3CC3C(N)=O)S[C@H]12 (some centres undefined) showed MIC of 0.25

* * *

Tested on: Staphylococcus aureus
Assay: In vitro antibacterial activity against Sa MR(I) heterogeneous methicillin resistant Staphylococcus aureus
Assay type: functional
measuredAttribute: MIC (µg/mL)
Report only the number, with the unit µg/mL understood.

> print(dat)
                                   molecule  measuredattribute  unitstring  recordedmeasurement
1  C[C@@H](O)[C@H]1C(=O)N2C(C(=O)O)=C(CN(C)[C@@H](C)C(N)=O)S[C@H]12                MIC       µg/mL                 0.12
2  C[C@@H](O)[C@H]1C(=O)N2C(C(=O)O)=C(CN(C)CCC(N)=O)S[C@H]12                MIC       µg/mL                 0.12
3  C[C@H](C(N)=O)N(C)CC1=C(C(=O)O)N2C(=O)[C@H]([C@@H](C)O)[C@H]2S1                MIC       µg/mL                 0.06
4  COC(=O)[C@@H]1CCCN1CC1=C(C(=O)O)N2C(=O)[C@H]([C@@H](C)O)[C@H]2S1                MIC       µg/mL                 0.25
5  C[C@@H](O)[C@H]1C(=O)N2C(C(=O)O)=C(CN(C)C(CO)C(N)=O)S[C@H]12 (stereo partly specified)                MIC       µg/mL                 0.25
6  C[C@@H](O)[C@H]1C(=O)N2C(C(=O)O)=C(CN3CCCCC3C(N)=O)S[C@H]12 (stereo partly specified)                MIC       µg/mL                 0.12
7  C[C@@H](O)[C@H]1C(=O)N2C(C(=O)O)=C(CN3CCC[C@H]3C(=O)O)S[C@H]12                MIC       µg/mL                    1
8  C[C@@H](O)[C@H]1C(=O)N2C(C(=O)O)=C(CN3CCC[C@H]3C(N)=O)S[C@H]12                MIC       µg/mL                  0.5

Looking up "C[C@@H](O)[C@H]1C(=O)N2C(C(=O)O)=C(CSC(=S)N(C)CC(N)=O)S[C@H]12" , I found its MIC recorded as 0.03

Looking up C[C@@H](O)[C@H]1C(=O)N2C(C(=O)O)=C(CN(C)C(Cc3ccccc3)C(N)=O)S[C@H]12 (stereo partly specified) , I found its MIC recorded as 0.12

Looking up C[C@@H](O)[C@H]1C(=O)N2C(C(=O)O)=C(SCCNC=N)C[C@H]12 [IMIPENEM ANHYDROUS] , I found its MIC recorded as 0.12

Looking up "C[C@@H](O)[C@H]1C(=O)N2C(C(=O)O)=C(CN3C[C@H](O)C[C@@H]3C(N)=O)S[C@H]12" , I found its MIC recorded as 0.25

Looking up "C[C@@H](O)[C@H]1C(=O)N2C(C(=O)O)=C(CN3C[C@H](O)C[C@H]3C(N)=O)S[C@H]12" , I found its MIC recorded as 0.25

* * *

Tested on: Escherichia coli
Experiment: In Vitro antibacterial activity against (Ec L) Escherichia coli […] strain
Type: functional
Criterion: MIC strictly under 2 µg/mL. Met: rule met. Not met: rule not met.

Below, 2 compounds whose answers are already recorded.
> print(dat)
                                   compound  discretelabel
1  C[C@@H](O)[C@H]1C(=O)N2C(C(=O)O)=C(CN(C)[C@@H](C)C(N)=O)S[C@H]12       rule met
2  C[C@H](C(N)=O)N(C)CC1=C(C(=O)O)N2C(=O)[C@H]([C@@H](C)O)[C@H]2S1       rule met

Q. Criterion: MIC strictly below 2 µg/mL. Is it met by C[C@@H](O)[C@H]1C(=O)N2C(C(=O)O)=C(CN3CC3C(N)=O)S[C@H]12 (stereo partly specified) ?
A. rule not met

Q. Criterion: MIC strictly below 2 µg/mL. Is it met by "COC(=O)[C@@H]1CCCN1CC1=C(C(=O)O)N2C(=O)[C@H]([C@@H](C)O)[C@H]2S1" ?
A. rule not met

Q. Criterion: MIC strictly below 2 µg/mL. Is it met by "C[C@@H](O)[C@H]1C(=O)N2C(C(=O)O)=C(CSC(=S)N(C)CC(N)=O)S[C@H]12" ?
A. rule not met

Q. Criterion: MIC strictly below 2 µg/mL. Is it met by "C[C@@H](O)[C@H]1C(=O)N2C(C(=O)O)=C(CN(C)CC(=O)NCC(N)=O)S[C@H]12" ?
A. rule met

Q. Criterion: MIC strictly below 2 µg/mL. Is it met by "C[C@@H](O)[C@H]1C(=O)N2C(C(=O)O)=C(CN3C[C@@H](O)C[C@@H]3C(N)=O)S[C@H]12" ?
A. rule met

Q. Criterion: MIC strictly below 2 µg/mL. Is it met by "C[C@@H](O)[C@H]1C(=O)N2C(C(=O)O)=C(CN(CC(N)=O)CC(N)=O)S[C@H]12" ?
A. rule met

Q. Criterion: MIC strictly below 2 µg/mL. Is it met by C[C@@H](O)[C@H]1C(=O)N2C(C(=O)O)=C(CN3CCCC(C(N)=O)C3)S[C@H]12 (stereo partly specified) ?
A. rule not met

Q. Criterion: MIC strictly below 2 µg/mL. Is it met by "C[C@@H](O)[C@H]1C(=O)N2C(C(=O)O)=C(CN(C)CC(=O)N(C)C)S[C@H]12" ?
A. rule met

Q. Criterion: MIC strictly below 2 µg/mL. Is it met by "C[C@@H](O)[C@H]1C(=O)N2C(C(=O)O)=C(CN3C[C@H](O)C[C@H]3C(N)=O)S[C@H]12" ?
A. rule met
